Test: Solubility of losartan as a function of pH
Format: physicochemical
Settings: water, aqueous buffer; pH 8.5, 37° C.

{"columns": ["Entry Smiles", "solubility"],
 "data": [
  ["CCCCc1nc(Cl)c(CO)n1Cc1ccc(-c2ccccc2-c2nn[nH]n2)cc1", "> 550 mg/mL"]
]}

---

Assay: Solubility of losartan as a function of pH
Format: physicochemical
Conditions: water, aqueous buffer; pH 4.5, 37° C.

{"columns": ["Compound", "Reading Unit", "solubility"],
 "data": [
  ["CCCCc1nc(Cl)c(CO)n1Cc1ccc(-c2ccccc2-c2nn[nH]n2)cc1 [losartan]", "µg/mL", 120]
]}
